Taken from patent US20250388666A1.

- target-desc: T1, CEACAM1 (Sino Biological) (human, UniProt P13688 35-428, limits assumed)
- T1 construct: may be the same as CEACAM1-HIS; also called hCEACAM1; biotinylated soluble CEACAM1
- T1 sequence: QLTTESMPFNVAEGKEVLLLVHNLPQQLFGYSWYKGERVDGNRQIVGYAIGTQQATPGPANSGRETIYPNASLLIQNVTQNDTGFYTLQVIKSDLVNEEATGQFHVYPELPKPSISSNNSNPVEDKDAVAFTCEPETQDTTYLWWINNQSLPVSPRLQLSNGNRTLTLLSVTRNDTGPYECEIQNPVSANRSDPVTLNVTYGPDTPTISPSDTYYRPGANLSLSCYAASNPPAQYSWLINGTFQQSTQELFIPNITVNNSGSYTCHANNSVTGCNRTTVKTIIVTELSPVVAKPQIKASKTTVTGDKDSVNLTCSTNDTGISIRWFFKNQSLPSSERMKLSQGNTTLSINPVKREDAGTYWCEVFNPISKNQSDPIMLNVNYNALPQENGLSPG
- assay-text: SPR multi-cycle, IgG on Protein A
A collection of binders and their measured koff
recorded-metric: koff (s⁻¹)

binder: He17/L16 (antibody, IgG4, V domains shown, IgG4 S241P, kappa; also called 17 / 16) VH: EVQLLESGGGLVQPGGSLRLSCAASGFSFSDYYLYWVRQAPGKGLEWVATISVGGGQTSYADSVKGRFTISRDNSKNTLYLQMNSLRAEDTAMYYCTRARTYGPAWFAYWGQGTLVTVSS VL: DIVMTQSPDSLAVSLGERATINCKSSQSLLNSANQKNYLAWYQQKPGQPPKLLIYFASTRESGVPDRFSGSGSGTDFTLTISSLQAEDVAVYYCQSHYPYPFTFGGGTKVEIK
units-text: s⁻¹
recorded-value: 0.00795
--
binder: He17/L1 (antibody, IgG4, V domains shown, IgG4 S241P, kappa; also called 17 / 1; H17/L1) VH: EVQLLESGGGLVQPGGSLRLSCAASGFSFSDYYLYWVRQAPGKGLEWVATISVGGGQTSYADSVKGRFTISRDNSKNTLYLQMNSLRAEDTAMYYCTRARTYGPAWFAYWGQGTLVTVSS VL: DIVMTQSPDSLAVSLGERATINCKSSQSLLNSANQKNYLAWYQQKPGQPPKLLIYFASTRESGVPDRFSGSGSGTDFTLTISSLQAEDVAVYYCQSHYPFYYTFGGGTKVEIK
units-text: s⁻¹
recorded-value: 0.00409
